Data provenance is paper PMC3478134.

Test system: ANBL-6.WT cells
procedureSummary: Cell viability, ANBL-6.WT
Assay type: cell-based
assayConditions: ANBL-6.WT, 48 hr
metric: IC50 (µM)
# value in µM; strip the unit string

# lookup: IC50 of CC(=O)c1cc([N+](=O)[O-])c(Sc2cccc(Cl)c2Cl)s1 6.83
